Cited source: patent US11395857B2

Procedure Text: Biodistribution of 177Lu-labeled αMSH analogues in mice bearing B16F10 mouse melanoma
Format: in vivo, C57BL/6J mice
Condition Parameters: mouse, spleen, iv, total radioactivity; 120 h p.i., C57BL/6J mice, B16F10 melanoma; read-out: Biodistribution, Spleen
Procedure: The B16-F10 mouse melanoma cells were cultured and inoculated in mice as described in Example 1. For biodistribution studies, approximately 1-2 MBq of ^177Lu-labeled αMSH analogues via tail vein under anesthesia. At 1, 4, 24, and 120 h p.i., the mice were euthanized by CO2 inhalation. Organs/tissues were harvested and the radioactivity was measured as described in Example 1.
# tissue uptake at 120 h per entry
Write down the numeric answer in %ID/g and omit the unit.

CCCC[C@H](NC(=O)CN1CCC(NC(=O)[C@H](CCCCNC(=O)CN2CCN(CC(=O)O)CCN(CC(=O)O)CCN(CC(=O)O)CC2)NC(=O)[C@H](CCC(=O)O)NC(=O)CCCc2ccc(I)cc2)CC1)C(=O)N[C@H]1CC(=O)NCCCC[C@@H](C(N)=O)NC(=O)[C@H](Cc2c[nH]c3ccccc23)NC(=O)[C@H](CCCNC(=N)N)NC(=O)[C@@H](Cc2ccccc2)NC(=O)[C@H](Cc2c[nH]cn2)NC1=O [^177Lu-labeled CCZ01082, metal not drawn]; 0.65

Now consider the entry below.
State the recorded tissue uptake at 120 h for this entry: CCCC[C@H](NC(=O)CN1CCC(NC(=O)[C@H](CCCCNC(=O)CN2CCN(CC(=O)O)CCN(CC(=O)O)CCN(CC(=O)O)CC2)NC(=O)[C@H](CCC(=O)O)NC(=O)CCCc2ccc(I)cc2)CC1)C(=O)N[C@H]1CC(=O)NCCCC[C@@H](C(N)=O)N(C)C(=O)[C@H](Cc2c[nH]c3ccccc23)N(C)C(=O)[C@H](CCCNC(=N)N)N(C)C(=O)[C@@H](Cc2ccccc2)NC(=O)[C@H](Cc2c[nH]cn2)N(C)C1=O [^177Lu-labeled CCZ01088, metal not drawn] 0.3

----------
Procedure Text: Biodistribution of 177Lu-labeled αMSH analogues in mice bearing B16F10 mouse melanoma
Type: in vivo, C57BL/6J mice
Condition Parameters: mouse, tumour/blood, iv, total radioactivity; 24 h p.i., C57BL/6J mice, B16F10 melanoma; read-out: Tumour/blood
Measured Endpoint: tissue to tissue ratio at 24 h
Output: the number by itself.

Field: example entries. Status: answers known.
CCCC[C@H](NC(=O)CN1CCC(NC(=O)[C@H](CCCCNC(=O)CN2CCN(CC(=O)O)CCN(CC(=O)O)CCN(CC(=O)O)CC2)NC(=O)[C@H](CCC(=O)O)NC(=O)CCCc2ccc(I)cc2)CC1)C(=O)N[C@H]1CC(=O)NCCCC[C@@H](C(N)=O)NC(=O)[C@H](Cc2c[nH]c3ccccc23)NC(=O)[C@H](CCCNC(=N)N)NC(=O)[C@@H](Cc2ccccc2)NC(=O)[C@H](Cc2c[nH]cn2)NC1=O [^177Lu-labeled CCZ01082, metal not drawn]; 87.6
CCCC[C@H](NC(=O)CN1CCC(NC(=O)CN2CCN(CC(=O)O)CCN(CC(=O)O)CCN(CC(=O)O)CC2)CC1)C(=O)N[C@H]1CC(=O)NCCCC[C@@H](C(N)=O)N(C)C(=O)[C@H](Cc2c[nH]c3ccccc23)NC(=O)[C@H](CCCNC(=N)N)N(C)C(=O)[C@@H](Cc2ccccc2)NC(=O)[C@H](Cc2c[nH]cn2)NC1=O [^177Lu-labeled CCZ01106, metal not drawn]; 652

State the recorded tissue to tissue ratio at 24 h for this entry: CCCC[C@H](NC(=O)CN1CCC(NC(=O)[C@H](CCCCNC(=O)CN2CCN(CC(=O)O)CCN(CC(=O)O)CCN(CC(=O)O)CC2)NC(=O)[C@H](CCC(=O)O)NC(=O)CCCc2ccc(I)cc2)CC1)C(=O)N[C@H]1CC(=O)NCCCC[C@@H](C(N)=O)N(C)C(=O)[C@H](Cc2c[nH]c3ccccc23)NC(=O)[C@H](CCCNC(=N)N)N(C)C(=O)[C@@H](Cc2ccccc2)NC(=O)[C@H](Cc2c[nH]cn2)NC1=O [^177Lu-labeled CCZ01118, metal not drawn] 397

Now consider CCCC[C@H](NC(=O)CN1CCC(NC(=O)CN2CCN(CC(=O)O)CCN(CC(=O)O)CCN(CC(=O)O)CC2)CC1)C(=O)N[C@H]1CC(=O)NCCCC[C@@H](C(N)=O)NC(=O)[C@H](Cc2c[nH]c3ccccc23)NC(=O)[C@H](CCCNC(=N)N)NC(=O)[C@@H](Cc2ccccc2)NC(=O)[C@H](Cc2c[nH]cn2)NC1=O [^177Lu-labeled CCZ01048, metal not drawn, reference compound] and answer again. 530

Now consider CCCC[C@H](NC(=O)CN1CCC(NC(=O)[C@H](CCCCNC(=O)CN2CCN(CC(=O)O)CCN(CC(=O)O)CCN(CC(=O)O)CC2)NC(=O)[C@H](CCC(=O)O)NC(=O)CCCc2ccc(I)cc2)CC1)C(=O)N[C@H]1CC(=O)NCCCC[C@@H](C(N)=O)N(C)C(=O)[C@H](Cc2c[nH]c3ccccc23)N(C)C(=O)[C@H](CCCNC(=N)N)N(C)C(=O)[C@@H](Cc2ccccc2)NC(=O)[C@H](Cc2c[nH]cn2)N(C)C1=O [^177Lu-labeled CCZ01088, metal not drawn] and answer again. 60.6
